molecular target: human TGR5 (Homo sapiens, UniProt Q8TDU6); construct: expressed in transfected cells; experiment: Cell-based TGR5 assay, HEK293 cells stably expressing human TGR5, cAMP by HTRF; settings: HEK293 cells stably expressing human TGR5, 30 min at 37 C, 0.05 nM to 10 μM, read-out: pEC50 Human TGR5 (converted)
Sequence (Q8TDU6 whole entry): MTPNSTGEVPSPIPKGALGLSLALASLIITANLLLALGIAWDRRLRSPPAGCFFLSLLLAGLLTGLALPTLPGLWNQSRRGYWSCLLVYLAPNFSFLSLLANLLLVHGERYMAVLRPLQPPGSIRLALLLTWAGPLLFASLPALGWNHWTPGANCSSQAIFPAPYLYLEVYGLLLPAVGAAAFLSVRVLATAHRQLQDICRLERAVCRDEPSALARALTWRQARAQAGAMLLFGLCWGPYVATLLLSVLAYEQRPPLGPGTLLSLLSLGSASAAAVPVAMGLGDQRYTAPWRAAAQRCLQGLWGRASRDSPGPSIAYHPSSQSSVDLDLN
Overview of reported EC50 across a group of molecules:

Please review the following examples before continuing.
INSERT INTO measurements (molecule, tested_target, measured_value) VALUES
  ('CN(C[C@H](O)[C@@H](O)[C@H](O)[C@H](O)CO)C(=O)NCCCCc1ccc(Cl)c(CNC2(C(=O)N3CCN(C4CC4)c4ccccc43)CC2)c1', 'human TGR5 (Homo sapiens, UniProt Q8TDU6)', '126 to 1000 nM'),
  ('O=C(CCCCc1ccc(C(F)(F)F)c(CNC2(C(=O)N3CCN(C4CC4)c4ccccc43)CC2)c1)NC[C@H](O)[C@@H](O)[C@H](O)[C@H](O)CO', 'human TGR5 (Homo sapiens, UniProt Q8TDU6)', '1260 to 50100 nM'),
  ('O=C(O)CNC(=O)[C@H](CS)NC(=O)CC[C@H](NC(=O)CCCCc1cc(Cl)c(CN2CSC[C@H]2C(=O)N2CCN(C3CC3)c3ccccc32)cc1Cl)C(=O)O', 'human TGR5 (Homo sapiens, UniProt Q8TDU6)', '< 100 nM'),
  ('CN(C[C@H](O)[C@@H](O)[C@H](O)[C@H](O)CO)C(=O)c1cccc(OCc2cc(Cl)c(CN3CSC[C@H]3C(=O)N3CCN(C4CC4)c4ccccc43)cc2Cl)c1', 'human TGR5 (Homo sapiens, UniProt Q8TDU6)', '126 to 1000 nM'),
  ('O=C([C@@H]1CCCN1Cc1c(Cl)cccc1Cl)N1CCN(C2CC2)c2ccccc21', 'human TGR5 (Homo sapiens, UniProt Q8TDU6)', '> 10000 nM');

Enquiry: Any idea what its EC50 is? The molecule is O=C(N1CCN(C2CC2)c2ccccc21)C1(COc2cc(Cl)ccc2Cl)CC1
Return: < 100 nM

Enquiry: Next entry: CN(C(=O)[C@@H]1CSCN1Cc1cc(Cl)ccc1Cl)c1ccccc1OC1CC1
Return: 126 to 1000 nM
